- Assayed system: SAA binding to purified THP-1 cell membranes (Homo sapiens, UniProt P0DJI8)
- Sequence (P0DJI8 19-122): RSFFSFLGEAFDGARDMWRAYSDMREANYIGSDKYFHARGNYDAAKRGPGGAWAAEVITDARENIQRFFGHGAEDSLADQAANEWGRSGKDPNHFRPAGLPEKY
- Assay info: Inhibition of SAA binding to purified cell membranes (ELISA)
- Condition label: read-out: Serum Amyloid A/Membrane Activity (IC-50), purified cell membranes (THP-1 per Example 54)
Structures can show the parent of a compound that is named as a salt.
Hi! Just check whether IC50 is below 20 µM. Below gives true (1), equal or above gives false (0).

C/C(=N\Nc1ncnc2cc(Cl)ccc12)c1ccc(-n2cnc(C)c2C)nc1 [Compound 16, phosphate] = true (1)
Clc1ccc2c(N/N=C/c3ccc(-n4ccnc4)nc3)ccnc2c1 [Compound 14, hydrochloride] = false (0)
CC(=NNc1ccnc2cc(Cl)ccc12)c1ccc(-n2ccnc2)cc1 [Compound 36, phosphate] = true (1)
COc1cc(Nc2nncc3cc(Cl)ccc23)cnc1-n1cnc(C)c1C = false (0)
COc1cc2nccc(N/N=C/c3ccc(-n4ccnc4)c(OC)c3)c2cc1OC [Compound 13, phosphate] = false (0)

Item Clc1ccc2c(N/N=C/c3ccc(-n4ccnc4)cc3)ccnc2c1 [Compound 38, dihydrochloride] : IC50 beneath 20 µM, strictly? false (0)

Item Clc1ccc2c(Nc3ccc(-n4cncn4)nc3)ccnc2c1 : IC50 beneath 20 µM, strictly? true (1)

Item Clc1ccc2c(Nc3ccc(-n4cncn4)nc3)ncnc2c1 : IC50 beneath 20 µM, strictly? true (1)

Item Cc1ncn(-c2ccc(/C=N\Nc3ncnc4cc(Cl)ccc34)cn2)c1C [Compound 15, hydrochloride] : IC50 beneath 20 µM, strictly? false (0)

Item Cc1ncn(-c2ccc(Nc3ncnc4cc(Cl)ccc34)cn2)c1C : IC50 beneath 20 µM, strictly? false (0)

* * *

- Assayed system: Tau binding to heparin (HS-GAG) (Homo sapiens)
- Sequence (P10636 with tags, fused parts or gaps): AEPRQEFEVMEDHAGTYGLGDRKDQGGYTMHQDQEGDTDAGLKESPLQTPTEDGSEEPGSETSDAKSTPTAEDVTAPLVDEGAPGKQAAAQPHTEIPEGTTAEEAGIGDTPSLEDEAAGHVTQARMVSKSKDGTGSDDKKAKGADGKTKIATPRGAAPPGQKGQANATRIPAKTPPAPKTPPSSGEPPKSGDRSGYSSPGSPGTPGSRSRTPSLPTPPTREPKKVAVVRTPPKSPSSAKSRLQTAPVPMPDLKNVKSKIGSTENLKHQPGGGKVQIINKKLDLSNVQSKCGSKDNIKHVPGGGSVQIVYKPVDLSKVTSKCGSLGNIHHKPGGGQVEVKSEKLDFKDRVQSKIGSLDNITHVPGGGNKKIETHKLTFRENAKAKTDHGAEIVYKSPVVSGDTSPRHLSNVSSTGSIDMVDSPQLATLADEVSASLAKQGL
- Assay info: Inhibition of Tau binding to immobilized heparin-BSA (ELISA)
- Design: species or system porcine
- Condition label: Tau/Heparin Activity (IC-50), Tau, heparin-BSA
Counter-ions that a name gives are not always drawn.
Experimental readout: pIC50
Hey, just a heads up that pIC50 is the negative log base 10 of the concentration in molar.

Here is how some compounds turned out for pIC50.
COc1cc(Nc2nncc3cc(Cl)ccc23)cnc1-n1cnc(C)c1C = 4.47
C[N+](C)(C)Cc1ccc(/C=N\Nc2ccnc3ccc(Cl)cc23)cc1 = 4.53
CC(=NNc1ccnc2cc(Cl)ccc12)c1ccc(-n2cnc(C)c2C)nc1 = 4.55
Clc1ccc2c(N/N=C/c3ccc(-n4ccnc4)nc3)ccnc2c1 [Compound 14, hydrochloride] = 4.69
C/C(=N\Nc1ncnc2cc(Cl)ccc12)c1cccc(CN(C)C)c1 = 4.49

get_value(item= C/C(=N\Nc1ncnc2cc(Cl)ccc12)c1ccc(-n2cc[n+](C)c2)nc1 , readout=pIC50) returns 4.91

get_value(item= COc1ccc2c(NN=Cc3ccc(-n4ccnc4)c(C)c3)ccnc2c1 , readout=pIC50) returns 4.88

get_value(item= C/C(=N\Nc1ncnc2cc(Cl)ccc12)c1ccc(-n2cnc(C)c2C)nc1 [Compound 16, phosphate] , readout=pIC50) returns 5.41

* * *

- Assayed system: Alpha-Synuclein Protofibril binding to purified human brain membranes (Homo sapiens, UniProt P37840)
- Assay info: Inhibition of protofibrillar alpha-synuclein binding to purified human brain cell membranes (ELISA)
- Condition label: alpha-synuclein protofibrils, read-out: Alpha-Synuclein/Membrane Activity (IC-50)
Hi! Just check whether IC50 is below 4 µM. Below gives Met, equal or above gives Not met.

Cc1cc(-n2ccnc2)ccc1/C=N/Nc1ccnc2cc(Cl)ccc12 = Not met

Okay, next one:
Item C/C(=N\Nc1ncnc2cc(F)ccc12)c1ccc(-n2cnc(C)c2C)nc1 : IC50 beneath 4 µM, strictly? Met

* * *

compounds and their reported IC50
- Assayed system: Tau binding to purified human brain membranes (Homo sapiens, UniProt P10636)
- Sequence (P10636 with tags, fused parts or gaps): as the sequence (P10636 with tags, fused parts or gaps) above
- Assay info: Inhibition of Tau binding to purified human brain cell membranes (ELISA)
- Condition label: Tau, purified human brain membranes; read-out: Tau/Membrane Activity (IC-50)
Only the number, expressed in µM, is required.

Here is how some compounds turned out for IC50.
Clc1ccc2c(Nc3ccc(-n4ccnc4)nc3)ncnc2c1 [Compound 41] = 5.58
Cc1cc(-n2ccnc2)ccc1/C=N/Nc1ccnc2cc(Cl)ccc12 [Compound 1] = 0.49

get_value(item= C/C(=N\Nc1nncc2cc(Cl)ccc12)c1ccc(-n2cc(C)nc2C)nc1 [Compound 24] , readout=IC50) returns 2.56

* * *

compounds and their reported inhibition at 30 µM
- Assayed system: Alpha-Synuclein Protofibril binding to heparin (HS-GAG) (Homo sapiens, UniProt P37840)
- Assay info: Inhibition of alpha-synuclein protofibril binding to immobilized heparin-BSA (ELISA)
- Parameters: species or system porcine
- Condition label: 30 μM compound; alpha-synuclein protofibrils, heparin-BSA; read-out: Alpha-Synuclein/Heparin Activity (% inhibition class)

O=S1(=O)CCN(Cc2ccc(/C=N/Nc3ccnc4cc(F)ccc34)cc2)CC1 [Compound 10] = < 30%

get_value(item= CCN(CC)Cc1cccc(Nc2ccnc3cc(Cl)ccc23)c1 [Compound 42] , readout=inhibition at 30 µM) returns < 30%

get_value(item= Fc1ccc2c(N/N=C/c3ccc(CN4CCOCC4)cc3)ccnc2c1 [Compound 6] , readout=inhibition at 30 µM) returns > 30%

get_value(item= C[N+](C)(C)Cc1ccc(/C=N\Nc2ccnc3ccc(Cl)cc23)cc1 [Compound 4] , readout=inhibition at 30 µM) returns > 30%

get_value(item= CN(C)Cc1cc(Nc2ccnc3cc(Cl)ccc23)ccn1 [Compound 45] , readout=inhibition at 30 µM) returns < 30%

get_value(item= C[n+]1ccc(/C=N\Nc2ccnc3ccccc23)cc1 [Compound 9] , readout=inhibition at 30 µM) returns < 30%

* * *

- Assayed system: Tau binding to purified human brain membranes (Homo sapiens, UniProt P10636)
- Assay info: Inhibition of Tau binding to purified human brain cell membranes (ELISA)
- Method: Purified human brain cell membranes were prepared by differential centrifugation as follows. […] Protein concentration was measured with BCA protein assay kit (Pierce Cat. No. 23227). […] Bound GBAP was detected by a monoclonal antibody specific for that GBAP, followed by incubation with secondary antibody conjugated to horseradish peroxidase (HRP). […] The Optical Density of the samples was measured at 450 nm using an ELISA plate reader (BioTek Synergy H1). […] IC-50s were calculated using GraphPad Prism software. […]
Counter-ions that a name gives are not always drawn.
compounds and their reported log10 IC50
In plain terms, each number is the log10 of measured IC50 in µM.

Here is how some compounds turned out for log10 IC50.
CCN1CCN(c2ccc(Nc3ccnc4cc5ccccc5cc34)cc2)CC1 = 1.73
CN1CCN(Cc2ccc(/C=N/Nc3ccnc4cc(Cl)ccc34)cc2)CC1 = 0.09
COc1ccc2c(NN=Cc3ccc(-n4ccnc4)c(C)c3)ccnc2c1 = 1.48

get_value(item= Clc1ccc2c(N/N=C/c3ccc(-n4cccn4)cc3)ccnc2c1 , readout=log10 IC50) returns 0.95

get_value(item= C/C(=N\Nc1ncnc2cc(Cl)ccc12)c1ccc(-n2cnc(C)c2C)nc1 [Compound 16, phosphate] , readout=log10 IC50) returns 0.98

get_value(item= Clc1ccc2c(N/N=C/c3ccc(-n4ccnc4)nc3)ccnc2c1 [Compound 14, hydrochloride] , readout=log10 IC50) returns 0.27

get_value(item= COc1cc2nccc(NN=Cc3ccc(-n4ccnc4)c(C)c3)c2cc1OC [Compound 11, hydrochloride] , readout=log10 IC50) returns 0.92

get_value(item= Fc1ccc2c(N/N=C/c3ccc(-n4ccnc4)cc3)ccnc2c1 , readout=log10 IC50) returns -0.08

get_value(item= Fc1ccc2c(N/N=C/c3ccc(CN4CCOCC4)cc3)ccnc2c1 , readout=log10 IC50) returns -0.20

* * *

- Assayed system: Alpha-Synuclein Protofibril binding to heparin (HS-GAG) (Homo sapiens, UniProt P37840)
- Assay info: Inhibition of alpha-synuclein protofibril binding to immobilized heparin-BSA (ELISA)
- Set-up: species or system porcine
- Condition label: Alpha-Synuclein/Heparin Activity (IC-50), alpha-synuclein protofibrils, heparin-BSA
- Procedure: Porcine intestinal mucosa heparin conjugated to Bovine Serum Albumin (Heparin-BSA) was prepared as described (Najjam, S. et al. 1997, Cytokine 12, 1013-1022). […] Bound GBAP was detected by a monoclonal antibody specific for that GBAP, followed by incubation with secondary antibody conjugated to horseradish peroxidase (HRP). […] The Optical Density of the samples was measured at 450 nm using an ELISA plate reader (BioTek Synergy H1). […] IC-50s were calculated using GraphPad Prism software. […]
Structures can show the parent of a compound that is named as a salt.
Experimental readout: log10(IC50) (log10 of the value in µM)
In plain terms, each number is the log10 of measured IC50 in µM.

Here is how some molecules turned out for log10(IC50).
Cc1ncn(-c2ccc(/C=N\Nc3ncnc4cc(Cl)ccc34)cn2)c1C [Compound 15, hydrochloride] = 0.72
Clc1ccc2c(Nc3ccc(-n4cncn4)nc3)ncnc2c1 [Compound 34] = 0.70
Cc1ncn(-c2ccc(Nc3ncnc4cc(Cl)ccc34)cn2)c1C [Compound 25] = 0.58
COc1cc2nccc(N/N=C/c3ccc(-n4ccnc4)c(OC)c3)c2cc1OC [Compound 13, phosphate] = 1.55
Clc1ccc2c(N/N=C/c3ccc(-n4cccn4)cc3)ccnc2c1 [Compound 3] = 0.23

Now turn to the next molecule.
get_value(item= CN1CCN(Cc2ccc(/C=N/Nc3ccnc4cc(Cl)ccc34)cc2)CC1 [Compound 7] , readout=log10(IC50)) returns 0.15
